Provenance of the data: patent US20110086806A1

- experimental-system: T1, recombinant human IL-23R/Fc chimera (R&D Systems) (human, UniProt Q5VWK5 24-355)
- T1 construct: Bought; also called rhIL23RFc
- T1 sequence (looked up): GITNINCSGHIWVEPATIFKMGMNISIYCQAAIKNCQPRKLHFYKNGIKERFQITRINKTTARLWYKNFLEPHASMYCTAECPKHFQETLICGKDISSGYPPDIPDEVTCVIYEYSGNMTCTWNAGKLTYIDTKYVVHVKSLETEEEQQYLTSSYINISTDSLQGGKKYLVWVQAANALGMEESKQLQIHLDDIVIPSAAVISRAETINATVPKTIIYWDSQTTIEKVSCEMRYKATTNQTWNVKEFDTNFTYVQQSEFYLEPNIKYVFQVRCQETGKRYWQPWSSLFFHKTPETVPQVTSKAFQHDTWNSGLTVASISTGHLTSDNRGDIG
- protocol-summary: SPR
experimental-endpoint: koff (s⁻¹)

{"binder": "101-51-1A3 ATRIMER complex (designed binder, Forms a homotrimer through the tetranectin coiled coil; one protomer is given., not shown: C-terminal tag: His/Myc (pANA4) or HA-StrepII (pANA10)) EPPTQKPKKIVNAKKDVVNTKMFEELKSRLDTLAQEVALLKEQQALQTVCLKGTKVHMKCFLAFTQTKTFHEASEDCISRGGTLSTPQTGSENDALYEYLRQSVGNEAEIWLGLNGSALTNTWVDMTGARIAYKNWEHQPVYQPGGGWGVFGENCAVLSGAANGKWFDKRCRDQLPYICQFGIV", "experimental-endpoint": "koff", "measured-number": 0.000262}
{"binder": "101-51-1A5 ATRIMER complex (designed binder, Forms a homotrimer through the tetranectin coiled coil; one protomer is given., not shown: C-terminal tag: His/Myc (pANA4) or HA-StrepII (pANA10)) EPPTQKPKKIVNAKKDVVNTKMFEELKSRLDTLAQEVALLKEQQALQTVCLKGTKVHMKCFLAFTQTKTFHEASEDCISRGGTLSTPQTGSENDALYEYLRQSVGNEAEIWLGLNGSALTNTWVDMTGARIAYKNWENGHEPQPRGGFGYFGENCAVLSGAANGKWFDKRCRDQLPYICQFGIV", "experimental-endpoint": "koff", "measured-number": 0.000289}
{"binder": "001-89.C7F monomeric CTLD (designed binder) ALQTVCLKGTKVHMKCFLAFTQTKTFHEASEDCISRGGTLSTPQTGSENDALYEYLRQSVGNEAEIWLGLNGSLLTGLWVDMTGARIAYKNWETEITAQPDGGYGAWGENCAVLSGAANGKWFDKRCRDQLPYICQFGIV", "experimental-endpoint": "koff", "measured-number": 0.00531}
